- EXPERIMENTAL_PROTOCOL: Phase Ib twice daily oral dose study, pharmacokinetics
- Assay type: in vivo, healthy volunteers (human)
- REPORTED_CONDITIONS: human, plasma, oral; 150 mg bid, Day 1; read-out: t½ (converted)
MEASUREMENT_TYPE: half-life (h)
One number for each entry, in h.

// query Fill in: half-life of OCC1NCC(O)C(O)C1O (stereo not shown) is ___
// result 2.4

---

- EXPERIMENTAL_PROTOCOL: Phase I ascending single oral dose study, pharmacokinetics
- Assay type: in vivo, healthy volunteers (human)
- REPORTED_CONDITIONS: male, human, urine; single oral dose 225 mg; read-out: CLR (converted)
MEASUREMENT_TYPE: CL renal
Just so you know, I need the unit written after the number.

// query Fill in: CL renal of OCC1NCC(O)C(O)C1O (stereo not shown) [DGJ, 1-deoxygalactonojirimycin] is ___
// result 126 mL/min
